target: GPR139 (Homo sapiens); assay: GPR139 Agonist titration / agonist counterscreen assay (calcium detection, HEK-GPR139 cells); type: cell-based; design: expressed in transfected cells; host or cells: HEK Aequorin cells, Maxcyte transient transfection; settings: GPR139 Agonist Activity; ligand efficiency
Sequence (Q6DWJ6 whole entry): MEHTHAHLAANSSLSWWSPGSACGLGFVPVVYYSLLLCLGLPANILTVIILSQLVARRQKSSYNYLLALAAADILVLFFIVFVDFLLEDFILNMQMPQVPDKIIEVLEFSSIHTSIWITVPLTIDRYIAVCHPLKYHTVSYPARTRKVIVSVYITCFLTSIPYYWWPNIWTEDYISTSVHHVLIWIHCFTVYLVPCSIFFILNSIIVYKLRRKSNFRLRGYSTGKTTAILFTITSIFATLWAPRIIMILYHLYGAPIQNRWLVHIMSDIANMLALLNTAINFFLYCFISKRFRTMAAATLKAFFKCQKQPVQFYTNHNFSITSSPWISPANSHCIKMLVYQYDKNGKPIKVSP
assayReadout: Efficiency Ligand

Use the examples below as a reference point.
C=C(CC1N=CC2=C1c1ccccc1CC2)NCc1ccc(C)cc1 (centres unmarked)
0.38
Cc1ccc(CN2CCCN(CC(=O)NC3CCCCCCC3)C2=O)c(Cl)c1
0.35
COc1cccc(CNC(=O)Nc2ccc(-c3cn[nH]c3)cc2)c1
0.39

I. CC(=O)c1cccc(C(C)(C)CC(=O)CNC(=O)c2ccccc2)c1
II. CCCCCc1cc(C2=CCC=C2)ccc1CC(=O)C1CCc2ccccc2C1 (centres unmarked)
Incoming: Given the two records I and II , choose the one whose Efficiency Ligand value is lower. Let me know the label of the one you choose.
Outgoing: II
(II: 0.33, I: 0.50)

---

biological target: GPR139 (Homo sapiens); assay: GPR139 Agonist titration / agonist counterscreen assay (calcium detection, HEK-GPR139 cells); assay type: cell-based; design: expressed in transfected cells; host or cells: HEK Aequorin cells, Maxcyte transient transfection; settings: GPR139 Agonist Activity
assayReadout: Lipophilic Efficiency (logP)

O=C(NCCCn1ccnc1)c1cc2nc3c(c(C(F)(F)F)n2n1)CCc1ccccc1-3
3.01
COc1cccc(COC(=O)NC(C)C2COc3ccccc3O2)c1 (stereo not drawn)
2.98
O=C(Cn1ccc2ccccc21)NC1CCN(Cc2ccccc2)CC1
3.09

---

target: GPR139 (Homo sapiens); assay: GPR139 Agonist titration / agonist counterscreen assay (calcium detection, HEK-GPR139 cells); format: cell-based; set-up: expressed in transfected cells; host or cells: HEK Aequorin cells, Maxcyte transient transfection; settings: GPR139 Agonist Activity; HEK-GPR139 cells; read-out: EC50
assayReadout: EC50 (nM)

CC(CCc1ccccc1)NC(=O)Cn1ncc2c1-c1ccccc1OC2 (centres unmarked) [SR-01000134913]
863

a. NC1=NC(=O)/C(=C\c2ccc(Cl)cc2Cl)S1 [SR-01000310833]
b. CC(Oc1ccccc1)C(=O)NCCn1ccc2ccccc21 (centres unmarked) [SR-01000124163]
Incoming: Compare a and b and name the one whose reported EC50 is smaller. # answer = label of selected item
Outgoing: a

a. O=c1c2c([nH]c3nc(NCc4ccccc4Cl)nn13)CCC2 [SR-01000153956]
b. CCCC(=O)C1CCC(C(=O)CC2CCC(c3ccc(C(C)O)cc3)C2=O)CC1 (centres unmarked) [SR-01000924775]
Incoming: // compare: a vs b , metric EC50, want the smaller API: response body contains the label of the selected item.
Outgoing: b

I. O=C(CSCc1cccc2ccccc12)Nc1c[nH]c(=O)[nH]c1=O [SR-01000296110]
II. O=C(CCc1ccccc1)NNC(=O)C12CC3CC(CC(C3)C1)C2 [SR-01000314474]
Incoming: Hi team, can someone confirm which has the larger EC50: I or II ? Thanks. Refer to your chosen item by its label in the answer.
Outgoing: I
(I: 857 nM, II: 401 nM)

---

system: parental HEK cells; assay: HEK parental Agonist Counterscreen Assay (non-transfected cells); type: cell-based; details: HEK Agonist Activity section
assayReadout: Lipophilic Efficiency (logD)

# example entries with known answers
COc1cccc(CNC(=O)Nc2ccc(-c3cn[nH]c3)cc2)c1
2.23
O=C(CCc1ccccc1)NNC(=O)C12CC3CC(CC(C3)C1)C2
1.59
Nc1ccc(C(=O)OCC(=O)NC2CCCc3ccccc32)cc1[N+](=O)[O-] (stereo not drawn)
1.47
COc1cccc(CNC(=O)Nc2ccc(-c3ccncc3)cc2)c1.O=C(O)C(F)(F)F
1.76
CC12C=CC3(CN(Cc4ccccc4)C(=O)C3C1C(=O)NCC1COc3ccccc3O1)O2 (stereo not drawn)
2.93

P. N#C/C(=C/c1ccc(CNS(=O)(=O)c2ccccc2)o1)C(=O)NCCc1ccccc1
Q. O=C(C1CC(Cc2cccc3ccccc23)=NO1)N1CCC(C(O)Cc2ccccc2)CC1 (stereo not drawn)
Incoming: // task: argmin of Lipophilic Efficiency (logD) over [ P , Q ] // caller expects the label of the chosen entry
Outgoing: Q
(Q: 0.41, P: 1.96)

These entries and their values trace back to patent US20250099420A1.
